- EXPERIMENT NOTES: Cytotoxicity against mouse NIH/3T3 cells assessed as reduction in cell viability incubated for 24 hrs by neutral red dye uptake assay
- Type: cell-based, NIH3T3
Overview of recorded CC50 at 24 h for various compounds

>  <COMPOUND>
COc1cc(NC(c2ccc(CN3CCCC3)cc2)c2cccc(Cl)c2)c2ncccc2c1 (stereo not drawn)

>  <MEASUREMENT LABEL>
CC50 at 24 h

>  <VALUE>
28 µM

$$$$
>  <COMPOUND>
COc1cc(NC(c2ccc(CN3CCNCC3)cc2)c2cccc(Cl)c2)n2nc(C)nc2n1 (stereo not drawn)

>  <MEASUREMENT LABEL>
CC50 at 24 h

>  <VALUE>
< 3.5 µM

$$$$

// next entry
Q: Please give measured CC50 at 24 h of the following entry: COc1cc(NC(c2ccc(CN3CCNCC3)cc2)c2cccc(Cl)c2)c2ncccc2c1 (stereo not drawn)
Result: 19 µM

====

- SYSTEM TESTED: Chloroquine resistance transporter (Plasmodium falciparum, UniProt Q9N623)
- Sequence (Q9N623 whole entry): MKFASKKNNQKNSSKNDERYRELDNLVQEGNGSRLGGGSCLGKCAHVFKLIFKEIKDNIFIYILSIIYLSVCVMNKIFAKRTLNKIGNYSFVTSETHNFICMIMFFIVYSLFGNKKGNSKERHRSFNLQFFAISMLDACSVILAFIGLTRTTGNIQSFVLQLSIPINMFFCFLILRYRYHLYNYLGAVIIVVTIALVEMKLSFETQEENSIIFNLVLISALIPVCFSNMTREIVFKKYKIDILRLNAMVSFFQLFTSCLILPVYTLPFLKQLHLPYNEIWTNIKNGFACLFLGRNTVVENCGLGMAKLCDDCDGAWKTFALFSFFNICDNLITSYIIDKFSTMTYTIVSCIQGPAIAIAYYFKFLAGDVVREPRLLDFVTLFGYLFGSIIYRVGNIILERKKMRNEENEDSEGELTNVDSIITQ
- EXPERIMENT NOTES: Inhibition of Plasmodium falciparum Dd2 CRT expressed in Xenopus laevis oocyte assessed as inhibition of [3H]-CQ transport incubated for 1.5 hrs by microbeta scintillation counting method
Quick reference for pIC50 among some molecules
Quick note: pIC50 values are minus log10 of concentrations in mol/L.

Some molecules with known pIC50 results, for comparison:
>  <MOLECULE>
COc1cc(NC(c2ccc(CN3CCCC3)cc2)c2cccc(Cl)c2)c2ncccc2c1 (centres undefined)

>  <pIC50>
4.26

$$$$
>  <MOLECULE>
COc1cc(NC(c2ccc(CN3CCNCC3)cc2)c2cccc(Cl)c2)c2ncccc2c1 (centres undefined)

>  <pIC50>
4.19

$$$$
>  <MOLECULE>
Clc1ccc(C(Nc2ccnc3cc(Cl)ccc23)c2ccc(CN3CCN(Cc4ccc(C(Nc5ccnc6cc(Cl)ccc56)c5cccc(Cl)c5)cc4)CC3)cc2)cc1 (centres undefined)

>  <pIC50>
4.81

$$$$

Please look at the following molecule next.
Q: # return recorded pIC50 for input COc1cc(NC(c2ccc(CN3CCNCC3)cc2)c2cccc(Cl)c2)n2nc(C)nc2n1 (centres undefined)
Result: 4.90

====

- SYSTEM TESTED: Chloroquine resistance transporter (Plasmodium falciparum) (UniProt Q9N623)
- Sequence (Q9N623 whole entry): as above
- EXPERIMENT NOTES: Inhibition of Plasmodium falciparum Dd2 CRT expressed in Xenopus laevis oocyte assessed as inhibition of [3H]-CQ transport at 100 uM incubated for 1.5 hrs by microbeta scintillation counting method
- Format: cell-based
Calls of active or inactive are those of the source. No cut-off for these calls is given here.
MEASUREMENT LABEL: inhibition

Take a look at these entries with their results.
>  <COMPOUND>
COc1cc(NC(c2ccc(CN3CCCC3)cc2)c2cccc(Cl)c2)c2ncccc2c1 (stereo unspecified)

>  <SYSTEM TESTED>
Chloroquine resistance transporter (Plasmodium falciparum) (UniProt Q9N623)

>  <inhibition>
65%

$$$$
>  <COMPOUND>
COc1cccc(C(Nc2ccnc3cc(Cl)ccc23)c2ccc(CN3CCNCC3)cc2)c1 (stereo unspecified)

>  <SYSTEM TESTED>
Chloroquine resistance transporter (Plasmodium falciparum) (UniProt Q9N623)

>  <inhibition>
Active

$$$$
>  <COMPOUND>
COc1cc(NC(c2ccc(CN3CCNCC3)cc2)c2cccc(Cl)c2)n2nc(C)nc2n1 (stereo unspecified)

>  <SYSTEM TESTED>
Chloroquine resistance transporter (Plasmodium falciparum) (UniProt Q9N623)

>  <inhibition>
98%

$$$$
>  <COMPOUND>
Clc1ccc(C(c2ccc(CN3CCNCC3)cc2)c2ccnc3cc(Cl)ccc23)cc1 (stereo unspecified)

>  <SYSTEM TESTED>
Chloroquine resistance transporter (Plasmodium falciparum) (UniProt Q9N623)

>  <inhibition>
inactive

$$$$
>  <COMPOUND>
OC(c1ccc(Cl)cc1)c1ccc(CCN2CCCC2)cc1 (stereo unspecified)

>  <SYSTEM TESTED>
Chloroquine resistance transporter (Plasmodium falciparum) (UniProt Q9N623)

>  <inhibition>
22%

$$$$
>  <COMPOUND>
OC(c1ccc(Cl)cc1)c1ccc(CN2CCNCC2)cc1 (stereo unspecified)

>  <SYSTEM TESTED>
Chloroquine resistance transporter (Plasmodium falciparum) (UniProt Q9N623)

>  <inhibition>
22%

$$$$
>  <COMPOUND>
Clc1cccc(C(Nc2ccnc3cc(Cl)ccc23)c2ccc(CCN3CCCC3)cc2)c1 (stereo unspecified)

>  <SYSTEM TESTED>
Chloroquine resistance transporter (Plasmodium falciparum) (UniProt Q9N623)

>  <inhibition>
inactive

$$$$
>  <COMPOUND>
Clc1ccc(C(Nc2ccnc3cc(Cl)ccc23)c2ccc(CCN3CCCC3)cc2)cc1 (stereo unspecified)

>  <SYSTEM TESTED>
Chloroquine resistance transporter (Plasmodium falciparum) (UniProt Q9N623)

>  <inhibition>
inactive

$$$$
>  <COMPOUND>
Clc1ccc(C(Nc2ccnc3cc(Cl)ccc23)c2ccc(CN3CCCCC3)cc2)cc1 (stereo unspecified)

>  <SYSTEM TESTED>
Chloroquine resistance transporter (Plasmodium falciparum) (UniProt Q9N623)

>  <inhibition>
inactive

$$$$
>  <COMPOUND>
Oc1cccc(C(Nc2ccnc3cc(Cl)ccc23)c2ccc(CN3CCNCC3)cc2)c1 (stereo unspecified)

>  <SYSTEM TESTED>
Chloroquine resistance transporter (Plasmodium falciparum) (UniProt Q9N623)

>  <inhibition>
inactive

$$$$

Q: Print Chloroquine resistance transporter (Plasmodium falciparum) (UniProt Q9N623) inhibition for O=C(c1ccc(Cl)cc1)c1ccc(CN2CCNCC2)cc1 .
Result: 22%

Q: Please indicate recorded inhibition of OC(c1ccc(Cl)cc1)(c1ccc(CN2CCNCC2)cc1)c1ccnc2cc(Cl)ccc12 (stereo unspecified) measured with Chloroquine resistance transporter (Plasmodium falciparum) (UniProt Q9N623).
Result: inactive

Q: Output reported inhibition of the compound Clc1cccc(C(Nc2ccnc3cc(Cl)ccc23)c2ccc(CN3CCCCC3)cc2)c1 (stereo unspecified) on Chloroquine resistance transporter (Plasmodium falciparum) (UniProt Q9N623).
Result: inactive

Q: Jot down inhibition (Chloroquine resistance transporter (Plasmodium falciparum) (UniProt Q9N623)) of Clc1ccc(C(Nc2ccnc3cc(Cl)ccc23)c2ccc(CN3CCN(Cc4ccc(C(Nc5ccnc6cc(Cl)ccc56)c5cccc(Cl)c5)cc4)CC3)cc2)cc1 (stereo unspecified) .
Result: Active

Q: // fetch inhibition; item: Clc1ccc2c(NC(c3ccc(CN4CCNCC4)cc3)c3cccc(OCCOc4cccc(C(Nc5ccnc6cc(Cl)ccc56)c5ccc(CN6CCNCC6)cc5)c4)c3)ccnc2c1 (stereo unspecified) ; system: Chloroquine resistance transporter (Plasmodium falciparum) (UniProt Q9N623)
Result: Active

Q: Provide the reported inhibition (system: Chloroquine resistance transporter (Plasmodium falciparum) (UniProt Q9N623)) for COc1cc(NC(c2ccc(CN3CCNCC3)cc2)c2cccc(Cl)c2)c2ncccc2c1 (stereo unspecified)
Result: 65%
